System: SF-539 CNS
Test: NCI-60 one-dose screen, 48 h (100 = growth as untreated, 0 = no growth, -100 = all killed)
Conditions: 10 µM unless noted
The panel holds about 83,000 compounds, 20% with a hit somewhere; the sample as a whole holds those more often.
// reported growth per item
Dear colleague, please return just the value in %, with no unit written.

# QUERY SMILES, UNIT ABBREV, growth
data = [
    ("CCN(CC)c1nc(SCC(=O)Nc2nc3ccc(C)cc3s2)nc(-c2ccccc2)c1C#N", "%", 89.2),
]

Q) If you can, please state the reported growth value of O=C(COc1ccc(/C=C2\Oc3ccccc3C2=O)cc1)Nc1nc2ccccc2s1 .
A) -88.3

Q) Now the compound COC(=O)c1c2c(c(C)[n+]([O-])c1C)C(=O)C(NCc1ccc(F)c(Cl)c1)=CC2=O
A) 3.31

Cited source: PubChem BioAssay (NCI)
